# key: entry, value: Kd
- experiment description: The in vitro binding constant in presence of Rb+ was reported
- Type: functional

- given smiles: "COC(=O)CN1CCOCCOCCOCCOc2cc(-c3c4cc(F)c(=O)cc-4oc4cc(O)c(F)cc34)ccc21"
  Kd: "319 mM"
- given smiles: "COC(=O)CN1CCOCCOCCOCCOc2cc(NC(=O)c3ccc(-c4c5cc(F)c(=O)cc-5oc5cc(O)c(F)cc45)c(C(=O)O)c3)ccc21"
  Kd: "157 mM"
- given smiles: "COC(=O)CN1CCOCCOCCOCCOCCOc2cc(-c3c4cc(F)c(=O)cc-4oc4cc(O)c(F)cc34)ccc21"
  Kd: "25 mM"
- given smiles: "COC(=O)CN1CCOCCOCCOc2cc(-c3c4cc(F)c(=O)cc-4oc4cc(O)c(F)cc34)ccc21"
  Kd: "376 mM"
